Molecular target: Mu-type opioid receptor (Mus musculus)
Sequence (P42866 whole entry): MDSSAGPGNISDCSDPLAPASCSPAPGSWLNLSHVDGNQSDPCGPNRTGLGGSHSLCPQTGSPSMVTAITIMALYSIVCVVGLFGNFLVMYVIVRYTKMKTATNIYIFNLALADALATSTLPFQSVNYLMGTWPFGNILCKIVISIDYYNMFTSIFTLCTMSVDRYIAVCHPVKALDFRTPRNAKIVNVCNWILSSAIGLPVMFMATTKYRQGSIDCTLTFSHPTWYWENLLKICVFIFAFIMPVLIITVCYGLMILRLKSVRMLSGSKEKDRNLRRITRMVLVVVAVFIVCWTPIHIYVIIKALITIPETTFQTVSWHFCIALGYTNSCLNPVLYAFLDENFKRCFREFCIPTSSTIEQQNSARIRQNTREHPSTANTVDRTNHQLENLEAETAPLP
Experiment: Agonist activity at mouse MOR expressed in CHO cell membranes assessed as induction of [35S]GTPgammaS binding after 90 mins by scintillation spectroscopy
readout name: EC50

Worked examples follow.
{"query smiles": "CN1CC[C@]23c4c5ccc(O)c4O[C@H]2[C@@H](NC(=O)c2ccncc2)CC[C@H]3[C@H]1C5", "EC50": "8.16 nM"}
{"query smiles": "CN1CC[C@]23c4c5ccc(O)c4O[C@H]2[C@@H](NC(=O)c2ccncc2)C=C[C@H]3[C@H]1C5", "EC50": "4.62 nM"}
{"query smiles": "CN1CC[C@]23c4c5ccc(O)c4O[C@H]2[C@@H](NC(=O)c2cccnc2)C=C[C@H]3[C@H]1C5", "EC50": "2.83 nM"}
{"query smiles": "CN1CC[C@]23c4c5ccc(O)c4O[C@H]2[C@@H](NC(=O)c2cccnc2)CC[C@H]3[C@H]1C5", "EC50": "7.98 nM"}
{"query smiles": "CN1CC[C@]23c4c5ccc(O)c4O[C@H]2[C@@H](NC(=O)c2cccnc2)CC[C@@]3(O)[C@H]1C5", "EC50": "25.7 nM"}

Enquiry: Sample `CN1CC[C@]23c4c5ccc(O)c4O[C@H]2[C@@H](NC(=O)c2ccncc2)CC[C@@]3(O)[C@H]1C5` — what was its EC50?
Return: 26.4 nM
